Reference source: patent US12037324B2

Could you please report measured log10 EC50 for the items listed next?
# TGT: hAT1R (Homo sapiens)
# Sequence (P30556 whole entry): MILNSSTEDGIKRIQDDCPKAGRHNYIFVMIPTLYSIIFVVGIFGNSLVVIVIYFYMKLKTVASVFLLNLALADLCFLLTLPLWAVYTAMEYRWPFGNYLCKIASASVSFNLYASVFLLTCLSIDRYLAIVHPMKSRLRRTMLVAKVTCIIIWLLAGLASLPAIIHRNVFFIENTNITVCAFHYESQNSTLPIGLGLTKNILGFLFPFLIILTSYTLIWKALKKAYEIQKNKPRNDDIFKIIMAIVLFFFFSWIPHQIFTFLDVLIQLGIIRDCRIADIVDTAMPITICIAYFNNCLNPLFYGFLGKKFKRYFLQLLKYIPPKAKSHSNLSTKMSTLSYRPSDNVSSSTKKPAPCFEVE
# ASSAY_NAME: cell-based
# TEST_CONDITIONS: section of the 42nd table ending at r951, example numbering restarts after the DiscoveRx section; read-out: β-arrestin2 EC50
Friendly reminder: values = log10 of EC50, unit nM.

COMPOUND: CCCCc1ncc(C(=O)NCc2cnn(C)c2)n1Cc1ccc(-c2cc(-c3ccccc3)ccc2-c2nn[nH]n2)cc1
TGT: hAT1R (Homo sapiens)
log10 EC50: 1.05
--
COMPOUND: CCc1nc2c(C)cc(C)nc2n1Cc1ccc(-c2cc(-c3ccccc3)ccc2C(=O)O)cn1
TGT: hAT1R (Homo sapiens)
log10 EC50: 3.23
--
COMPOUND: CCCCC1=NC2(CCOC2)C(=O)N1Cc1ccc(-c2cc(-c3cccc(C)c3)ccc2-c2nnn[nH]2)cc1 (single isomer, unassigned) [Example 153]
TGT: hAT1R (Homo sapiens)
log10 EC50: 1.73
--
COMPOUND: CCCCC1=NC2(CCOCC2)C(=O)N1Cc1ccc(-c2cc(-c3cc(C)ccn3)ccc2-c2nn[nH]n2)cc1
TGT: hAT1R (Homo sapiens)
log10 EC50: 1.84
--
COMPOUND: CCOc1nc2cccc(C(=O)O)c2n1Cc1ccc(-c2cc(-c3cnn(C(F)F)c3)ccc2-c2nn[nH]n2)cc1
TGT: hAT1R (Homo sapiens)
log10 EC50: 1.52
--
COMPOUND: CCCCC1=NC2(CCOC2)C(=O)N1Cc1ccc(-c2cc(-c3cccc(C)c3)ccc2-c2nnn[nH]2)cc1 (single isomer, unassigned) [Example 152]
TGT: hAT1R (Homo sapiens)
log10 EC50: 1.34
--
COMPOUND: CCOc1nc2cccc(C(=O)O)c2n1Cc1ccc(-c2cc(-c3c[nH]c4ccccc34)ccc2-c2noc(=O)[nH]2)cc1
TGT: hAT1R (Homo sapiens)
log10 EC50: 0.99
--
COMPOUND: CCc1nc2c(C)cc(C)nc2n1Cc1ccc(-c2cc(-n3cncc3C)ccc2-c2nnn[nH]2)cc1
TGT: hAT1R (Homo sapiens)
log10 EC50: 1.56

I'm hoping you can list log10 EC50 for every compound here, please.
1. CCc1nc2c(C)cc(C)nc2n1Cc1ccc(-c2cc(-n3ccc(C(F)(F)F)n3)ccc2-c2nnn[nH]2)cc1
2. CCc1nc2c(C)cc(C)nc2n1Cc1ccc(-c2cc(-c3ccccc3)ccc2-c2nn[nH]n2)c(F)c1
3. CCCn1cc(-c2ccc(-c3nnn[nH]3)c(-c3ccc(Cn4c(CC)nc5c(C)cc(C)nc54)cc3)c2)nn1
4. CCc1nc2c(C)cc(C)nc2n1Cc1ccc(-c2cc(Oc3ncccc3F)ccc2-c2nn[nH]n2)cc1
5. CCOc1nc2cccc(C(=O)O)c2n1Cc1ccc(-c2cc(-c3cc(OC)ccn3)ccc2-c2noc(=O)[nH]2)cc1

Response given:
1.52
1.28
1.24
1.66
1.17

I'm hoping you can list log10 EC50 for every compound here, please.
1. CCc1nc2c(C)cc(C)nc2n1Cc1ccc(-c2cc(Oc3cccnc3)ccc2-c2noc(=O)[nH]2)cc1
2. CCc1nc2c(C)cc(C)nc2n1Cc1ccc(-c2cc(-c3cccc(C)c3)ccc2C(=O)O)cc1
3. CCCCc1nc(Cl)c(C(=O)O)n1Cc1ccc(-c2cc(N3CCC[C@@H](C)C3)ccc2-c2nn[nH]n2)cc1

Response given:
1: 1.59; 2: 1.42; 3: 1.93
